Test: Oral bioavailability in Beagle dog at 1 mg/kg and measured upto 24 hrs by LC-MS/MS analysis
Assay type: ADME, organism-based, Canis lupus familiaris
Conditions: in vivo
result.type: bioavailability (%)

>>> measured("C[C@@H]1Cc2c(ccc3[nH]ncc23)[C@@H](c2c(F)cc(N3CCC4(CCN(C(=O)CN5Cc6cc7c(cc6C5)C(=O)N(C5CCC(=O)NC5=O)C7=O)CC4)CC3)cc2F)N1CC(F)F (stereo partly specified)")
66

----------
In this section we review reported DC50 values for a set of compounds.
Biological target: Protein cereblon/Estrogen receptor (Homo sapiens, UniProt P03372+Q96SW2)
Assay: Protac activity at human ERalpha in human MCF7 cells assessed as protein degradation incubated for 12 hrs by ICW blot assay
Type: cell-based
Sequence (P03372 whole entry): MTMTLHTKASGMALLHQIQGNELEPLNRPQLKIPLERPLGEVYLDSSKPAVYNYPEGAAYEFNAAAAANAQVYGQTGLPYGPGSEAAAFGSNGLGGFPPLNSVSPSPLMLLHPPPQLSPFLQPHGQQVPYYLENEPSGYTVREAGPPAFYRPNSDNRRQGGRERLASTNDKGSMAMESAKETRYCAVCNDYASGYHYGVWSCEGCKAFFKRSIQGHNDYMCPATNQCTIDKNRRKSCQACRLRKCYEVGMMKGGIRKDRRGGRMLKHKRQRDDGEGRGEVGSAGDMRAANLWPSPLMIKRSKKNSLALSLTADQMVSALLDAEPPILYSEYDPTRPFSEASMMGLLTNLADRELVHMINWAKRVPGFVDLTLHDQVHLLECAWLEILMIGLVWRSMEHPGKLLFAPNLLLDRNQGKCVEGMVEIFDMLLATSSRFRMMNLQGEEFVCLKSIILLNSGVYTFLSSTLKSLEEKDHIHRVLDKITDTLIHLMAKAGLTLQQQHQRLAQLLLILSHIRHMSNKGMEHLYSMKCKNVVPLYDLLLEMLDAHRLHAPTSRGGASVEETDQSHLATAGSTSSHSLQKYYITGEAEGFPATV
Sequence (Q96SW2 whole entry): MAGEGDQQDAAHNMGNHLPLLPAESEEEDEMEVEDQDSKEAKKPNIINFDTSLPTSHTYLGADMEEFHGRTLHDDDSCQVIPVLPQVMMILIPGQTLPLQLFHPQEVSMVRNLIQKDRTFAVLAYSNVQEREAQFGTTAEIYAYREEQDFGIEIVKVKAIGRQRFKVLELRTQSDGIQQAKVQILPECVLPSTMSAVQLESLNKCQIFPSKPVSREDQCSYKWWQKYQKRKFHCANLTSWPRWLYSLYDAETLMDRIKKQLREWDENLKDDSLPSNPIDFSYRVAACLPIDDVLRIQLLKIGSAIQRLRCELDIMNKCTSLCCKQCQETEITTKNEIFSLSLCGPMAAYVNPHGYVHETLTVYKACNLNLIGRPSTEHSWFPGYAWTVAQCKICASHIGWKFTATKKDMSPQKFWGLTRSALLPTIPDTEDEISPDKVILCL
result.type: DC50 (nM)

>>> measured("O=C1CCC(N2C(=O)c3cc4c(cc3C2=O)CN(CC(=O)N2CCCC3(CCN(c5ccc([C@@H]6c7ccc(O)cc7CC[C@@H]6c6ccccc6)cc5)CC3)C2)C4)C(=O)N1 (stereo partly drawn)")
393
>>> measured("O=C1CCC(N2C(=O)c3cc4c(cc3C2=O)CN(C(=O)C2CCN(CC3CCN(c5ccc([C@@H]6c7ccc(O)cc7CC[C@@H]6c6ccccc6)cc5)CC3)CC2)C4)C(=O)N1 (stereo partly drawn)")
9.7
>>> measured("C[C@@H]1Cc2c(ccc3[nH]ncc23)[C@@H](c2ccc(N3CCC4(CCN(C(=O)CN5Cc6cc7c(cc6C5)C(=O)N(C5CCC(=O)NC5=O)C7=O)CC4)CC3)cn2)N1CC(F)(F)F (stereo partly drawn)")
3.8

----------
Target: Cytochrome P450 3A4 (Homo sapiens, UniProt P08684)
Sequence (P08684 whole entry): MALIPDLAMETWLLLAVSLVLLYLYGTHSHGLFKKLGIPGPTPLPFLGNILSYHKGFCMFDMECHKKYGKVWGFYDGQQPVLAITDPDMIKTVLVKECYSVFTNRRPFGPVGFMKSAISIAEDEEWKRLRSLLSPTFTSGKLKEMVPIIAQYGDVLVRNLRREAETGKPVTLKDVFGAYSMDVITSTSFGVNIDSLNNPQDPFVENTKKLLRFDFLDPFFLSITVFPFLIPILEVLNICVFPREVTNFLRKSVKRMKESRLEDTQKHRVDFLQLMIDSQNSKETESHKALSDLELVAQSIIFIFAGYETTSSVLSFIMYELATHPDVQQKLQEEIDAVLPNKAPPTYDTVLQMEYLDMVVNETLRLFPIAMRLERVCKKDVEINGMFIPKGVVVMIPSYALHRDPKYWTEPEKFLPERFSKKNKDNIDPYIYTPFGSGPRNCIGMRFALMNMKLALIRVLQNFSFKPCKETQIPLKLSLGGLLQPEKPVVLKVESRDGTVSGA
Assay: Inhibition of CYP3A4 in human liver microsomes using testosterone as substrate preincubated for 5 mins followed by NADPH addition and measured after 10 mins by LC-MS/MS analysis
Type: ADME, Microsome
pIC50: −log10 of the molar value.
result.type: pIC50

>>> measured("C[C@@H]1Cc2c(ccc3[nH]ncc23)[C@@H](c2c(F)cc(N3CCC4(CCN(C(=O)CN5Cc6cc7c(cc6C5)C(=O)N(C5CCC(=O)NC5=O)C7=O)CC4)CC3)cc2F)N1CC(F)F (stereo partly specified)")
"< 5.00"

----------
Test: Oral bioavailability in ICR mouse at 3 mg/kg and measured upto 24 hrs by LC-MS/MS analysis
Format: ADME, organism-based
Details: in vivo
This section presents compounds with their documented bioavailability values.
result.type: bioavailability (%)

>>> measured("O=C1CCC(N2C(=O)c3cc4c(cc3C2=O)CN(C2CCN(CC3CCN(c5ccc([C@@H]6c7ccc(O)cc7CC[C@@H]6c6ccccc6)cc5)CC3)CC2)C4)C(=O)N1 (stereo partly drawn)")
58
>>> measured("C[C@@H]1Cc2c(ccc3[nH]ncc23)[C@@H](c2c(F)cc(N3CCC4(CCN(C(=O)CN5Cc6cc7c(cc6C5)C(=O)N(C5CCC(=O)NC5=O)C7=O)CC4)CC3)cc2F)N1CC(F)F (stereo partly drawn)")
42
>>> measured("O=C1CCC(N2C(=O)c3cc4c(cc3C2=O)CN(CC(=O)N2CCC3(CC2)CCN(c2ccc([C@@H]5c6ccc(O)cc6CC[C@@H]5c5ccccc5)cc2)CC3)C4)C(=O)N1 (stereo partly drawn)")
35

----------
Biological target: Protein cereblon/Estrogen receptor (Homo sapiens, UniProt P03372+Q96SW2)
Assay: Protac activity at human ERalpha in human MCF7 cells assessed as induction of ERalpha degradation by measuring maximum efficacy at 1 uM incubated for 12 hrs by ICW blot assay relative to control
Assay type: cell-based
Sequence (P03372 whole entry, looked up): as the sequence (P03372 whole entry) above
Sequence (Q96SW2 whole entry, looked up): as the sequence (Q96SW2 whole entry) above
Please assign a class to every record based on measured Emax, with ranges lower segment (below 60%), middle segment (60% to below 80%), upper segment (80% or more)

>>> label("O=C1CCC(N2C(=O)c3cc4c(cc3C2=O)CN(C2CCN(CC3CN(c5ccc([C@@H]6c7ccc(O)cc7CC[C@@H]6c6ccccc6)cc5)C3)CC2)C4)C(=O)N1 (stereo partly specified)")
"lower segment"
>>> label("O=C1CCC(N2C(=O)c3cc4c(cc3C2=O)CN(CC2CCN(C(=O)C3CN(c5ccc([C@@H]6c7ccc(O)cc7CC[C@@H]6c6ccccc6)cc5)C3)CC2)C4)C(=O)N1 (stereo partly specified)")
"upper segment"
>>> label("O=C1CCC(N2C(=O)c3cc4c(cc3C2=O)CN(C(=O)C2CCN(CC3CN(c5ccc([C@@H]6c7ccc(O)cc7CC[C@@H]6c6ccccc6)cc5)C3)CC2)C4)C(=O)N1 (stereo partly specified)")
"lower segment"
>>> label("O=C1CCC(N2C(=O)c3cc4c(cc3C2=O)CN(CC(=O)N2CCC3(CCN(c5ccc([C@@H]6c7ccc(O)cc7CC[C@@H]6c6ccccc6)cc5)CC3)C2)C4)C(=O)N1 (stereo partly specified)")
"middle segment"
>>> label("O=C1CCC(N2C(=O)c3cc4c(cc3C2=O)CN(C2CN(CC3CCN(c5ccc([C@@H]6c7ccc(O)cc7CC[C@@H]6c6ccccc6)cc5)CC3)C2)C4)C(=O)N1 (stereo partly specified)")
"lower segment"
>>> label("C[C@@H]1Cc2c([nH]c3ccccc23)[C@@H](c2c(F)cc(N3CCC4(CCN(C(=O)CN5Cc6cc7c(cc6C5)C(=O)N(C5CCC(=O)NC5=O)C7=O)CC4)CC3)cc2F)N1CC(F)F (stereo partly specified)")
"upper segment"
>>> label("O=C1CCC(N2C(=O)c3cc4c(cc3C2=O)CN(CC(=O)N2CC3(C2)CN(c2ccc([C@@H]5c6ccc(O)cc6CC[C@@H]5c5ccccc5)cc2)C3)C4)C(=O)N1 (stereo partly specified)")
"middle segment"
>>> label("O=C1CCC(N2C(=O)c3cc4c(cc3C2=O)CN(CC(=O)N2CCC3(CC2)CCN(c2ccc([C@H]5c6ccc(O)cc6CC[C@H]5c5ccccc5)cc2)C3)C4)C(=O)N1 (single isomer, unassigned)")
"lower segment"
>>> label("O=C1CCC(N2C(=O)c3cc4c(cc3C2=O)CN(C(=O)CN2CCC3(CC2)CCN(c2ccc([C@@H]5c6ccc(O)cc6CC[C@@H]5c5ccccc5)cc2)CC3)C4)C(=O)N1 (stereo partly specified)")
"lower segment"

----------
Experiment: Plasma concentration in Sprague-Dawley rat at 5 mg/kg,po and mesured after 6 hrs by LC-MS/MS analysis
Type: ADME, organism-based
result.type: concentration at 6 h (µg/mL)

>>> measured("C[C@@H]1Cc2c([nH]c3ccccc23)[C@@H](c2c(F)cc(N3CCC4(CCN(C(=O)CN5Cc6cc7c(cc6C5)C(=O)N(C5CCC(=O)NC5=O)C7=O)CC4)CC3)cc2F)N1CC(F)F (stereo partly specified)")
0.0103

----------
Experiment: Metabolic stability in rat liver microsomes assessed as half life at 1 uM and measured upto 60 mins in presence of NADPH by LC-MS/MS analysis
Assay type: ADME, Microsome
result.type: half-life at 1 µM

>>> measured("C[C@@H]1Cc2c(ccc3[nH]ncc23)[C@@H](c2c(F)cc(N3CCC4(CCN(C(=O)CN5Cc6cc7c(cc6C5)C(=O)N(C5CCC(=O)NC5=O)C7=O)CC4)CC3)cc2F)N1CC(F)F (stereo partly specified)")
"> 1 h"

----------
Target: Cytochrome P450 2C8 (Homo sapiens)
Sequence (P10632 whole entry): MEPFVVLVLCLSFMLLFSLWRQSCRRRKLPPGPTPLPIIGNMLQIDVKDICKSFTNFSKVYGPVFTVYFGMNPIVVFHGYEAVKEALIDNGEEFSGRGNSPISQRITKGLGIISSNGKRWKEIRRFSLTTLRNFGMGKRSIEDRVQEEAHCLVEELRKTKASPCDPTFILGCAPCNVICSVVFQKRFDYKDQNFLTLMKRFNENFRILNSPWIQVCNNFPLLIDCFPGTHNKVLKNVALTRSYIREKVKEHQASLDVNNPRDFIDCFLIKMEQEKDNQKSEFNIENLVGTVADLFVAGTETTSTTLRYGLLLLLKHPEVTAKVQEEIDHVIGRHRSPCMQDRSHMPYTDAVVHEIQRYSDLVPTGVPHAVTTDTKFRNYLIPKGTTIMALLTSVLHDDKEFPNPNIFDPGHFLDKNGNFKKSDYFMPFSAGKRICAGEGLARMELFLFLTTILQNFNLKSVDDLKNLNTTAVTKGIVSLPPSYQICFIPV
pIC50: −log10 of the molar value.
result.type: pIC50

>>> measured("C[C@@H]1Cc2c(ccc3[nH]ncc23)[C@@H](c2c(F)cc(N3CCC4(CCN(C(=O)CN5Cc6cc7c(cc6C5)C(=O)N(C5CCC(=O)NC5=O)C7=O)CC4)CC3)cc2F)N1CC(F)F (stereo partly specified)")
"< 5.00"

----------
Target: Protein cereblon/Estrogen receptor (Homo sapiens, UniProt P03372+Q96SW2)
Test: Protac activity at human ERalpha in human MCF7 cells assessed as induction of ERalpha degradation by measuring maximum efficacy at 1 uM incubated for 12 hrs by ICW blot assay relative to control
Format: cell-based
// assign true (1) if Emax falls strictly below 70%, else false (0) (ties count as false (0))

>>> label("O=C1CCC(N2C(=O)c3cc4c(cc3C2=O)CN(CC2CCN(CC3CN(c5ccc([C@@H]6c7ccc(O)cc7CC[C@@H]6c6ccccc6)cc5)C3)CC2)C4)C(=O)N1 (stereo partly specified)")
"true (1)"
>>> label("O=C1CCC(N2C(=O)c3cc4c(cc3C2=O)CN(CCCCC2CCN(c3ccc([C@@H]5c6ccc(O)cc6CC[C@@H]5c5ccccc5)cc3)CC2)C4)C(=O)N1 (stereo partly specified)")
"true (1)"
>>> label("O=C1CCC(N2C(=O)c3cc4c(cc3C2=O)CN(CC2CN(C(=O)C3CCN(c5ccc([C@@H]6c7ccc(O)cc7CC[C@@H]6c6ccccc6)cc5)CC3)C2)C4)C(=O)N1 (stereo partly specified)")
"false (0)"
>>> label("O=C1CCC(N2C(=O)c3cc4c(cc3C2=O)CN(C2CCN(c3ccc([C@@H]5c6ccc(O)cc6CC[C@@H]5c5ccccc5)cc3)CC2)C4)C(=O)N1 (stereo partly specified)")
"true (1)"
>>> label("C[C@@H]1Cc2c([nH]c3ccccc23)[C@@H](c2c(F)cc(N3CCC4(CCN(C(=O)CN5Cc6cc7c(cc6C5)C(=O)N(C5CCC(=O)NC5=O)C7=O)CC4)CC3)cc2F)N1CC(F)(F)CO (stereo partly specified)")
"false (0)"
>>> label("C[C@@H]1Cc2c([nH]c3ccccc23)[C@@H](c2c(F)cc(N3CCC4(CCN(C(=O)CN5Cc6cc7c(cc6C5)C(=O)N(C5CCC(=O)NC5=O)C7=O)CC4)CC3)cc2F)N1CC(C)(C)F (stereo partly specified)")
"false (0)"
